Reference for the values: patent US20260374766A1

Assign IC50 to each entry below.
# System: H1299 p53 R273H
# Test name: Cell Proliferation Assay (CellTiter-Glo, CTG), H1299 p53 R273H (NClH1299-inducible p53 R273H)
# Type: cell-based
# Setup conditions: Homo sapiens, NCI-H1299, 120 h, CellTiter-Glo, H1299 p53 R273H, 5 days

Batch request: IC50 per item, same order as input.
1. CNC(=O)Nc1cc(NC2CCN(C)CC2)c2nc(C#CCNc3ccc(C(=O)NC)cc3OC)c(CC(F)(F)F)n2c1
2. CN1CC[C@@H](Nc2cccn3c(CC(F)(F)F)c(C#CCNc4ccc(S(C)(=O)=O)cc4F)nc23)[C@@H](F)C1
3. CNC(=O)c1ccc(OC)c(NCC#Cc2cc3c(N[C@@H]4CCNC[C@@H]4F)cccn3c2SC(F)(F)F)c1
4. CNC(=O)c1ccc(NCC#Cc2nc3c(N[C@H]4CCc5nncn5C4)cccn3c2SC(F)(F)F)c(OC)c1

Key:
["≥ 10 µM", "≥ 10 µM", "5 to 8 µM", "≥ 10 µM"]
